Read-out: Matrix Metallopeptidase 9 (MMP9), MMP9 (gene 4318)
Assay: BSK_KF3CT_MMP9: BioMAP Diversity Plus: KF3CT Assay for Matrix Metallopeptidase 9 (MMP9) Biomarker Activity (AID 2283074)
Conditions: primary human keratinocytes with fibroblasts; actives raise or lower the signal
Method: BSK_KF3CT is a cell-based, multiplexed-readout assay that uses keratinocytes and foreskin fibroblasts, a human skin primary cell co-culture, with measurements taken at 24 hours after chemical dosing in a 96-well plate.BSK_KF3CT_MMP9 is an assay component measured in the BSK_KF3CT assay. It measures MMP-9 antibody related to regulation of gene expression using ELISA technology.Data from the assay component BSK_KF3CT_MMP9 was analyzed into 1 assay endpoint. […]
Calls of active or inactive are those of the source. How the source made its calls: active means hit-call score of the fitted dose curve at least 0.9, where 1 is the maximum; inactive means score below 0.9.
# valid calls are yes for active, no for inactive; nothing else

Query: recorded result category for `CCC(C)(c1ccc(O)cc1)c1ccc(O)cc1` in this test no

Recorded test outcome, item `Cc1ccc(O)c(C)c1` no

# fetch the recorded call for `O=C(O)C(F)(F)C(F)(F)C(F)(F)C(F)(F)C(F)(F)F` here no

Called result for `CCCCCCOC(=O)c1ccccc1C(=O)OCCCCCC` no

So what was the verdict on `CN(C)c1nc(=O)n(C2CCCCC2)c(=O)n1C` in this test? no

Which outcome did this test record for the molecule `CCCCCCCCCC[N+](C)(C)CCCCCCCCCC` ? yes

// param item: `C[C@]12CCC(=O)C=C1CC[C@@H]1[C@@H]2CC[C@]2(C)C(=O)CC[C@@H]12` ; yields the recorded call no

Each molecule tested received a call. Report the one for `ClC1=C(Cl)[C@]2(Cl)[C@@H]3[C@@H](Cl)[C@H]4O[C@H]4[C@@H]3C1(Cl)C2(Cl)Cl` . no

Would you mind telling me which call this test gave `C[C@]12CCC(=O)C=C1CC[C@@H]1[C@@H]2CC[C@@]2(C)[C@H]1CC[C@]2(C)O` ? no

Returns: the outcome recorded for `CCNc1nc(NC(C)C)nc(SC)n1` in this assay. no

Lab log entry: `Cc1ccccc1CO[C@@H]1C[C@@]2(C(C)C)CC[C@]1(C)O2` — outcome as called in the assay? no

Check the results log: what was the call for `CC1=C2C[C@H]3[C@@H](CC=C4C[C@@H](O)CC[C@@]43C)[C@@H]2CC[C@]12O[C@@H]1C[C@H](C)CN[C@H]1[C@H]2C` ? no

How was C1CC2OC2CC1C1CO1 (stereo not drawn) classified in this test? no

For this molecule, state the assay outcome: `CCC(=O)O[C@H]1CC[C@H]2[C@@H]3CCC4=CC(=O)CC[C@]4(C)[C@H]3CC[C@]12C` yes

// outcome(item) with item = `CCOC(=O)C(O)(c1ccc(Cl)cc1)c1ccc(Cl)cc1` no

// outcome(item) with item = `CC#Cc1cc(C)nc(Nc2ccccc2)n1` no

Would you mind telling me which call this test gave `Cc1cccc(C)c1N` ? no

Short answer needed: outcome of this test for `O=NN(c1ccccc1)c1ccccc1` ? no

Entry `C=CC(=O)NCNC(=O)C=C` : call = ? no

Record lookup: outcome of this test for `COS(=O)(=O)OC` ? no

Hey, what did the test say about `Cc1cc2c3c(c1)C(c1ccccc1)=N[C@@H](NC(=O)c1ccncc1)C(=O)N3CC2` ? no

Check the results log: what was the call for `CCCCCCCCOC(=O)c1ccccc1C(=O)OCCCCCCCC` ? no

Check the results log: what was the call for `Cc1ccccc1O` ? no

====

experiment: IUF_NPC1_viability_72hr: Viability Assessment at 72 hours in the Leibniz Research Institute for Environmental Medicine (IUF) Neural Progenitor Cell Proliferation Assay (NPC1) (AID 2284209)
Calls of active or inactive are those of the source. Rule for the calls: active = hit-call score of the fitted dose curve at least 0.9, where 1 is the maximum; inactive = score below 0.9.
Returns: one label drawn from yes (1) for active, no (0) for inactive

input_smiles: O=S(=O)(O)C(F)(F)C(F)(F)C(F)(F)C(F)(F)C(F)(F)C(F)(F)F
group: no (0)
--
input_smiles: CO/C=C(/C(=O)OC)c1ccccc1COc1cccc(C(F)(F)F)n1
group: yes (1)
--
input_smiles: O=S(=O)(O)C(F)(F)C(F)(F)C(F)(F)C(F)(F)F
group: no (0)

Continue with the next compound.
Give the logged outcome of this assay for the following compound: `C=CC(N)=O` no (0)

====

target: Estrogen receptor (Homo sapiens) + Estrogen receptor beta (Homo sapiens) (UniProt P03372+Q92731); test: OT_ER_ERaERb_0480: Odyssey Thera (OT) 8-hour HEK293T Protein-Complementation Assay for Estrogen Receptor-alpha/-beta Heterodimer (AID 2283352)
Sequence (P03372 whole entry, looked up): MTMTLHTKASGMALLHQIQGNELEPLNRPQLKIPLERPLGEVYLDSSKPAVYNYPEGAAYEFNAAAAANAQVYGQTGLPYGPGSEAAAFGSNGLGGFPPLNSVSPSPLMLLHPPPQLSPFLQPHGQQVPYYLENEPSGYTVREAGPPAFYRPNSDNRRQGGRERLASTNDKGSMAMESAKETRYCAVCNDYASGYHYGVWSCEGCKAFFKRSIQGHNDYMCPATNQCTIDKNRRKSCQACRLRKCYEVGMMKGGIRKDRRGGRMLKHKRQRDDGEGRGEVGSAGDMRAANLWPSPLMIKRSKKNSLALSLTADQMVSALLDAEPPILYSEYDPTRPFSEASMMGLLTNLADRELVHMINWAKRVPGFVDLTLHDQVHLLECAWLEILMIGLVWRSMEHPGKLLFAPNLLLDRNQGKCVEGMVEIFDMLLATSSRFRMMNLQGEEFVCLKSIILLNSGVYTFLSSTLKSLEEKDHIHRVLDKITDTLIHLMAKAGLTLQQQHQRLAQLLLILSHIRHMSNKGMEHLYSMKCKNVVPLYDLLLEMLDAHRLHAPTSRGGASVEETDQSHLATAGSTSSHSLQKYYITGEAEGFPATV
Sequence (Q92731 whole entry, looked up): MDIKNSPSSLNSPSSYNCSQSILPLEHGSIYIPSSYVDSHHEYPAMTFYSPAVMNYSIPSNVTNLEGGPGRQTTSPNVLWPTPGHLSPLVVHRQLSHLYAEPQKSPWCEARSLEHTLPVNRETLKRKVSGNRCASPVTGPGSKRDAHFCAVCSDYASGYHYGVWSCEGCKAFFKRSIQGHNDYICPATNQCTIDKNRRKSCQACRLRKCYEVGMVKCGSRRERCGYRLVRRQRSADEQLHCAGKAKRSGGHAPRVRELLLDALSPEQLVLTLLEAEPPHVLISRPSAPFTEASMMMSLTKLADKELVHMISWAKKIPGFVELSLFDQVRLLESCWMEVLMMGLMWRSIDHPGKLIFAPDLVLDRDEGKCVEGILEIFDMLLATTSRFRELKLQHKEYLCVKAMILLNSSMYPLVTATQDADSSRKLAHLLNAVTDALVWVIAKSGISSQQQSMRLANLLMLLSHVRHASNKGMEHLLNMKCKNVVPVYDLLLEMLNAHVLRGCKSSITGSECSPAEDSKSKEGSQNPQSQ
Inconclusive results are not listed. Activity calls are given as the source filed them. How the source made its calls: active means hit-call score of the fitted dose curve at least 0.9, where 1 is the maximum; inconclusive means response in the unintended direction; inactive means score below 0.9.
reported_metric: AC50

Example results:
input_smiles: CCCCCCCCOC(=O)c1ccccc1C(=O)OCCCCCCCC
assay_result: inactive
--
input_smiles: NS(=O)(=O)C(F)(F)C(F)(F)C(F)(F)C(F)(F)C(F)(F)C(F)(F)C(F)(F)C(F)(F)F
assay_result: 72.1 µM (active)
--
input_smiles: Clc1ccc(Cl)cc1
assay_result: inactive
--
input_smiles: O=C(O)C(F)(F)C(F)(F)C(F)(F)C(F)(F)C(F)(F)F
assay_result: inactive
--
input_smiles: O=C(N[C@H]1CN2CCC1CC2)c1cc2ccoc2cn1
assay_result: inactive

Requested read-out: AC50. Entry: `O=C(NC(=O)c1c(F)cccc1F)Nc1cc(Cl)c(OC(F)(F)C(F)F)c(Cl)c1` inactive

====

experiment: CCTE_Simmons_MITO_viability: CellTiter-Glo Viability Assessment for CCTE's HepG2 Seahorse XF Respirometric Screening Assay [post-hoc], Simmons Lab (AID 2284007)
Results filed as inconclusive are left out. Activity calls are given as the source filed them. How the source made its calls: active means hit-call score of the fitted dose curve at least 0.9, where 1 is the maximum; inconclusive means response in the unintended direction; inactive means score below 0.9.
Classes to choose from: active, inactive

input_smiles: Oc1c(Cl)c(Cl)c(Cl)c(Cl)c1Cl
group: active

I would be grateful if you could indicate the recorded call for `CC(C)(O)C(=O)Nc1ccc([N+](=O)[O-])c(C(F)(F)F)c1` . inactive

I would be grateful if you could indicate the recorded call for `CC(c1ccc(O)cc1)(c1ccc(O)cc1)c1ccc(O)cc1` . inactive

Dear colleague, could you share the recorded outcome for `CC(C)(c1ccccc1)c1ccc(O)cc1` when you have a moment? inactive

====

assay: APR_HepG2_p53Act_24hr: Apredica 24-hour HepG2 Assay for p53 Activation (AID 2282913); details: high-content imaging, actives raise or lower the signal;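 further: p53 protein immunofluorescence averaged per cell in HepG2 with Hoechst nuclei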
The source made the active and inactive calls. The calls were made as follows: active = hit-call score of the fitted dose curve at least 0.9, where 1 is the maximum; inactive = score below 0.9.
Write down one outcome, taken from active, inactive

Before answering, review these 5 worked examples.
molecule: CCCN(CCC)N=O
group: inactive
--
molecule: CCCCCCOC(=O)c1ccccc1C(=O)OCCCCCC
group: inactive
--
molecule: CC#Cc1cc(C)nc(Nc2ccccc2)n1
group: inactive
--
molecule: C=CC(=O)NCNC(=O)C=C
group: inactive
--
molecule: Cc1ccccc1O
group: inactive

Can you look up the reported call for `Clc1ccc(C(Cl)(Cl)Cl)cc1` for me? inactive

Please indicate how the test categorized `CC(C)(c1ccccc1)c1ccc(O)cc1` . inactive

Recorded test call requested for `Cc1cc(-c2ccc(N)c(C)c2)ccc1N` inactive

Outcome logged for `COc1ccc(O)c(C(C)(C)C)c1` in this assay: inactive

Test call, this molecule: `CCCCCCCCCc1ccc(O)cc1` inactive

====

assay: ATG_PXRE_CIS: Attagene CIS-FACTORIAL HepG2 Assay for human Pregnane X Receptor Element (PXRE) (AID 2282957); details: HepG2 Attagene CIS-FACTORIAL PXRE reporter, mRNA; actives raise or lower the signal
Active and inactive are the calls of the source. Rule for the calls: active = hit-call score of the fitted dose curve at least 0.9, where 1 is the maximum; inactive = score below 0.9.
Respond with a class label; see yes (1) (active), no (0) (inactive)

Example entries begin here.
compound: O=C(NC(=O)c1c(F)cccc1F)Nc1cc(Cl)c(OC(F)(F)C(F)F)c(Cl)c1
group: no (0)

compound: CC(C)C(=O)OCC(C)(C)C(OC(=O)C(C)C)C(C)C (configuration not stated)
group: yes (1)

compound: O=S(=O)(O)C(F)(F)C(F)(F)C(F)(F)C(F)(F)F
group: no (0)

compound: Cc1ccccc1CO[C@@H]1C[C@@]2(C(C)C)CC[C@]1(C)O2
group: yes (1)

compound: C=CC(=O)NCNC(=O)C=C
group: no (0)

compound: CCC(C)(c1ccc(O)cc1)c1ccc(O)cc1
group: yes (1)

Here is the next item to consider.
Hi team, can someone confirm the assay call for `Cc1cc(O)ccc1Cl` ? no (0)

====

read-out: MicroRNA 122 (MIR122), gene 406906; assay: LTEA_HepaRG_MIR122: Life Technologies and Expression Analysis (LTEA) Assay for MicroRNA 122 (MIR122) using HepaRG (AID 2283516); details: mRNA level, 48 h; actives raise or lower the signal; further: the transcript read is the microRNA miR-122
Calls of active or inactive are those of the source. How the source made its calls: active means hit-call score of the fitted dose curve at least 0.9, where 1 is the maximum; inactive means score below 0.9.
Result category, one only: 1 (yes) for active, 0 (no) for inactive

input_smiles: CCCCCCCCOC(=O)c1ccccc1C(=O)OCCCCCCCC
group: 0 (no)

input_smiles: Oc1c(Cl)c(Cl)c(Cl)c(Cl)c1Cl
group: 1 (yes)

Each compound tested received a call. Report the one for `ClC1=C(Cl)[C@]2(Cl)[C@@H]3[C@H]4C[C@H]([C@@H]5O[C@H]45)[C@@H]3[C@@]1(Cl)C2(Cl)Cl` . 1 (yes)

Query: recorded result category for `ClC1=C(Cl)[C@]2(Cl)[C@@H]3[C@@H](Cl)[C@H]4O[C@H]4[C@@H]3C1(Cl)C2(Cl)Cl` in this test 0 (no)

For `C=CC(N)=O` , which call appears in the assay record? 0 (no)
